- Study system: GSK3b (GST-full length GSK3b) (Homo sapiens (Human))
- Test details: GSK3b TR-FRET kinase assay
- Format: biochemical
- Test conditions: 1 nM GSK3b, 2 μM ATP, 30 minute preincubation, Table 16; read-out: GSK3-B TR-FRET BIOCHEMICAL (TR-FRET)
- Procedure: TR-FRET Assay: The assay was performed in a white, 384 well, low volume, flat bottom plate (Grenier). After a 30 minute preincubation in assay buffer with the indicated concentration of compound, the kinase activity was initiated by the addition of the substrates. […] After 60 min at room temperature the plate was read on Envision plate reader using Ex: 340 nm, Em: 615 nm and […]. The normalized 665/615 Signal ratio versus log compound concentration was analyzed by XLFIT to yield IC50 values.
pIC50: −log10 of the molar value.
Readings of pIC50 for the listed compounds

[[record]]
compound = "CC1(C)CC(=O)C2=C(C1)Nc1n[nH]cc1C21CCN(S(C)(=O)=O)C1 (stereo not drawn)"
result = "≥ 7.00"

[[record]]
compound = "CC[C@@]1(c2cccc(-c3cn(C)nc3C)c2)C2=C(CC(C)(C)CC2=O)Nc2n[nH]cc21"
result = "< 5.30"


The compound CC1(C)CC(=O)C2=C(C1)Nc1n[nH]cc1C21CCN(S(=O)(=O)c2ccc(C(F)(F)F)cc2)CC1 , tested on GSK3b (GST-full length GSK3b) (Homo sapiens (Human)), showed pIC50 of ≥ 7.00

Entry CCC1(c2cccc(-c3ccnc4c3CCC4)c2)C2=C(CC(C)(C)CC2=O)Nc2n[nH]cc21 (stereo not drawn) [Compound 943534] , tested on GSK3b (GST-full length GSK3b) (Homo sapiens (Human)), has a reported pIC50 of ≥ 7.00

Readout pIC50 for CC[C@@]1(c2cccc(-c3ccncc3CO)c2)C2=C(CC(C)(C)CC2=O)Nc2n[nH]cc21 , test system GSK3b (GST-full length GSK3b) (Homo sapiens (Human)), was ≥ 7.00

With GSK3b (GST-full length GSK3b) (Homo sapiens (Human)) as the test system, CC1(C)CC(=O)C2=C(Nc3n[nH]cc3[C@]23CC[C@H](C(F)(F)F)CC3)C1F (stereo partly drawn) showed pIC50 of 6.00 to 7.00

Value (pIC50, GSK3b (GST-full length GSK3b) (Homo sapiens (Human))) for record CC1(C)CC(=O)C2=C(Nc3n[nH]cc3C23CCN(S(=O)(=O)c2ccccc2C(F)F)CC3)[C@H]1F = 6.00 to 7.00

Measured pIC50 for this entry CCC1(c2cccc(-c3ccncc3OC)c2)C2=C(CC(C)(C)CC2=O)Nc2n[nH]cc21 (stereo not drawn) on GSK3b (GST-full length GSK3b) (Homo sapiens (Human)): ≥ 7.00

GET /values?item= CC1(C)CCC2(CC1)C1=C(CC(C)(C)CC1=O)Nc1n[nH]cc12 &system= GSK3b (GST-full length GSK3b) (Homo sapiens (Human)) returns pIC50: 6.00 to 7.00

Value sought: pIC50, system GSK3b (GST-full length GSK3b) (Homo sapiens (Human)), item CCC1(c2cccc(-c3ccnc(C)c3)c2)C2=C(CC3(CCOC3)CC2=O)Nc2n[nH]cc21 (stereo not drawn) [Compound 947407] . Result: 5.30 to 6.00

----------
- Study system: GSK3α (GST-full length GSK3α) (Homo sapiens (Human))
- Sequence (P49840 whole entry): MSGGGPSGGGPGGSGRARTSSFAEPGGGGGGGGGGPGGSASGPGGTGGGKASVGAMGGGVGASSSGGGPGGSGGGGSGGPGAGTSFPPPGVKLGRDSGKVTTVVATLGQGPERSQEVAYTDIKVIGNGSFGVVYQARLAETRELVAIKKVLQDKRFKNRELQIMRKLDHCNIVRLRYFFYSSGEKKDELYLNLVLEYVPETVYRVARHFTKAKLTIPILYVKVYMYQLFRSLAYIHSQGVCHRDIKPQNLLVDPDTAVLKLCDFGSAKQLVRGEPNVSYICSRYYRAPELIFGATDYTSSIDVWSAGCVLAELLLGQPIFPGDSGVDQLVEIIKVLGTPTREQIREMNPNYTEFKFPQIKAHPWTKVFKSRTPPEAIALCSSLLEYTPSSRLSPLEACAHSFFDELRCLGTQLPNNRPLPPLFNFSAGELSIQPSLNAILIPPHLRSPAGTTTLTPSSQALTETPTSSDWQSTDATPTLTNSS
- Test details: GSK3α TR-FRET kinase assay
- Assay type: biochemical
- Test conditions: read-out: GSK3-A (TR-FRET 1 mM ATP); GMean; IC50; 1 mM ATP; geometric mean
Measure: IC50

Short answer for CC1(C)CC(=O)C2=C(C1)Nc1n[nH]cc1[C@@]21COC2(CN(C(=O)Cc3ccccc3)C2)C1 [Compound 948037] : IC50 was ≤ 100 nM

Lab note: CCCn1nccc1-c1cccc(C2(CC)C3=C(CC(C)(C)CC3=O)Nc3n[nH]cc32)c1 (stereo not drawn) [Compound 946093] gave IC50 of ≤ 100 nM

The measured IC50 associated with CC1(C)CC(=O)C2=C(C1)Nc1n[nH]cc1C21COC2(CN(C(=O)C3CCC3)C2)C1 (stereo not drawn) [Compound 947288] reads 100 to 1000 nM

Query CC(C)(C)Cc1[nH]nc2c1C(C)(c1cccc(N3CCOCC3)c1)C1=C(CC(C)(C)CC1=O)N2 (stereo not drawn) [Compound 126400] yields IC50 of 1000 to 5000 nM

The compound listed as CC[C@]1(c2cccc(-c3cnn(C(C)(C)C)c3)c2)C2=C(CC(C)(C)NC2=O)Nc2n[nH]cc21 [Compound 949112] has a reported IC50 of > 5000 nM

The compound listed as CC1CCC(CC(=O)N2CC3(C2)CC2(CO3)C3=C(CC(C)(C)CC3=O)Nc3n[nH]cc32)C1 (stereo not drawn) [Compound 947269] shows IC50 equal to 100 to 1000 nM

Query CCC1(c2cccc(-c3ccnc4c3CCC4)c2)C2=C(CC(C)(C)NC2=O)Nc2n[nH]c(C(F)(F)F)c21 (stereo not drawn) [Compound 947862] yields IC50 of ≤ 100 nM

Looking up CC(C)(C)Cc1[nH]nc2c1[C@@](C)(c1cccc(S(=O)(=O)N3CCCC3)c1)C1=C(CC(C)(C)NC1=O)N2 [Compound 108794] , I found its IC50 recorded as > 5000 nM

Entry CCC1(c2cccc(Br)c2)C2=C(CC(C)(C)C(F)C2=O)Nc2n[nH]cc21 (stereo not drawn) [Compound 835315] — recorded IC50 = 100 to 1000 nM

Lab note: CCC1(c2cccc(S(=O)(=O)CC3CC3)c2)C2=C(CC(C)(C)CC2=O)Nc2n[nH]cc21 (stereo not drawn) [Compound 917150] gave IC50 of ≤ 100 nM

For reference, reported IC50 for CC[C@]1(c2cccc(-c3ccnc(C)c3)c2)C2=C(C[C@]3(CCOC3)NC2=O)Nc2n[nH]cc21 [Compound 947406] stands at 100 to 1000 nM

----------
- Study system: GSK3b (GST-full length GSK3b) (Homo sapiens (Human), UniProt P49841)
- Sequence (P49841 whole entry): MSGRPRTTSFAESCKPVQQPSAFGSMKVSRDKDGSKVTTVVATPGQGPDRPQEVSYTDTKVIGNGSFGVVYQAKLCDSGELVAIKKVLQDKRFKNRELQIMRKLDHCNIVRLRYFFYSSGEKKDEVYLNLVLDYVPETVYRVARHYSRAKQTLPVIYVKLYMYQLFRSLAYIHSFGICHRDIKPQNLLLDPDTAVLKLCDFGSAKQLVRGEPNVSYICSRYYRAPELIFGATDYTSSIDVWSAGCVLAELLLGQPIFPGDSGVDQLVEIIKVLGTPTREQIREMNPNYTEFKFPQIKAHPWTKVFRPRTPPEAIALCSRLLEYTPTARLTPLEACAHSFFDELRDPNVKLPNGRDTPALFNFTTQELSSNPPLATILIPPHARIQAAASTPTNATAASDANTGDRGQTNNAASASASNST
- Test details: GSK3b TR-FRET kinase assay
- Assay type: biochemical
- Test conditions: GSK3-B (TR-FRET 1 mM ATP); GMean; IC50, 1 mM ATP; geometric mean
Measure: IC50

Example entries begin here.
[[record]]
smiles_notation = "CC1(C)CC2=C(C(=O)N1)C1(CCN(S(=O)(=O)C3CCCC3)CC1)c1c[nH]nc1N2"
result = "100 to 1000 nM"

[[record]]
smiles_notation = "CC1(C)CC(=O)C2=C(Nc3n[nH]cc3C23CCN(S(=O)(=O)c2cccc(C(F)(F)F)c2)CC3)[C@@H]1F"
result = "1000 to 5000 nM"


get_value(item= CC1(C)CC(=O)C2=C(Nc3n[nH]cc3C23CCN(S(=O)(=O)c2cccc(C(F)(F)F)c2)CC3)[C@H]1F , readout=IC50) returns 1000 to 5000 nM

// IC50 value for Cn1ccc(S(=O)(=O)N2CCC3(CC2)C2=C(CC(C)(C)CC2=O)Nc2n[nH]cc23)n1 : 1000 to 5000 nM

----------
- Study system: GSK3b (GST-full length GSK3b) (Homo sapiens (Human))
- Test details: GSK3b TR-FRET kinase assay
- Type: biochemical
- Test conditions: 1 nM GSK3b, 2 μM ATP, 30 minute preincubation, Table 16; read-out: GSK3-B TR-FRET BIOCHEMICAL (TR-FRET)
pIC50: −log10 of the molar value.
Recorded pIC50 for the following compounds

Worked set:
[[record]]
compound = "CC[C@@]1(c2ccccc2)C2=C(C[C@]3(CCNC3=O)CC2=O)Nc2n[nH]cc21"
result = "< 5.30"

[[record]]
compound = "CC1(C)CC(=O)C2=C(C1)Nc1n[nH]cc1C21CCC(n2cnnc2)CC1 (centres unmarked)"
result = "6.00 to 7.00"

[[record]]
compound = "Cn1ccc(S(=O)(=O)N2CC[C@]3(C2)C2=C(CC(C)(C)CC2=O)Nc2n[nH]cc23)n1"
result = "≥ 7.00"

[[record]]
compound = "CC1(C)CC(=O)C2=C(C1)Nc1n[nH]cc1C21CCCCCC1"
result = "6.00 to 7.00"


In plain terms, CCC1(c2cccc(Oc3ncccn3)c2)C2=C(CC(C)(C)CC2=O)Nc2n[nH]cc21 (centres unmarked) [Compound 947808] has a documented pIC50 of ≥ 7.00

----------
# pIC50 listing for each entry below
- Study system: GSK3α (GST-full length GSK3α) (Homo sapiens (Human))
- Test details: GSK3α TR-FRET kinase assay
- Format: biochemical
- Test conditions: 1 nM GSK3α, 4 μM ATP, 30 minute preincubation; geometric mean; read-out: GSK3-A TR-FRET BIOCHEMICAL (TR-FRET); GMean; IC50
pIC50: −log10 of the molar value.

For record CCC1(c2cccc(-c3cnn(C)c3C#N)c2)C2=C(CC(C)(C)NC2=O)Nc2n[nH]cc21 (stereo not shown) the listed pIC50 is ≥ 7.00
